Provenance of the data: paper PMC7367192

biological target: eGFP full-length vWF dimer (UniProt P04275); assay: EMSA; details: fixed dimer 0.47 mg/ml, DNA titrated; MST: PBS (162 mM ionic strength), optionally +150 mM NaCl; EMSA: 0.5x TA (20 mM ionic strength), +10 or +40 mM NaCl; FCS after shear at 2000-4000 s-1; pH and …
quantity_name: pKd
# pKd = -log10(concentration in molar units)

Q: Need pKd of GGCGTGCAGTGCCTTCGGCCGTGCGGTGCCTCCGTCACGCCTAAAATAAAA [ARC1172 ss DNA] , thanks.
A: 9.00

###

molecular target: vWF A1 domain (UniProt P04275); assay: MST; settings: MST: PBS (162 mM ionic strength), optionally +150 mM NaCl; EMSA: 0.5x TA (20 mM ionic strength), +10 or +40 mM NaCl; FCS after shear at 2000-4000 s-1; pH and …
quantity_name: pKd
# pKd = -log10(concentration in molar units)

# residue_string, assay_target, pKd
records = [
    ("GGCGTGCAGTGCCTTCGGCCGTGCGGTGCCTCCGTCACGCCTAAAATAAAA [ARC1172 ss DNA]", "vWF A1 domain (UniProt P04275)", 5.00),
]

Lab note: next sequence to report on.
Q: Which pKd is reported with vWF A1 domain (UniProt P04275) for this entry: CATAAATCTTTGAATACCAAGTGTTAGAACCATCAACCATATCAACTTCCTTTATACATCTA / CTACATCACTTTCTTCATTATAAAATAAAAGGAAGTTGATATGGTTGATG [23 bp ds DNA] ?
A: 4.89
